B1: Chromodomain-helicase-DNA-binding protein 4, residues 444 to 496; numbered along this chain, Q14839 (parent)
chain: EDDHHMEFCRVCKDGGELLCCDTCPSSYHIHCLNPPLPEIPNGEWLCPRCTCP

Variants of: B1
assay-explanation: abundance fitness (aPCA) (normalised: wild type 0, dead -1); higher = more abundant; growth selection in yeast, the domain comes from the species named
run-conditions: Homo sapiens
result-type: abundance fitness

Reported abundance fitness of C20W : 0.069

Reported abundance fitness of L33A : -0.429

Reported abundance fitness of H31T : -0.042

Reported abundance fitness of E7N : -0.664

Reported abundance fitness of N34L : -0.197

Reported abundance fitness of L37M : -0.115

Reported abundance fitness of I30W : -0.238
